TGT: full-length beta-Catenin (Uniprot ID P35222) (Homo sapiens (Human)) (UniProt P35222)
Sequence (P35222 2-781 limits assumed): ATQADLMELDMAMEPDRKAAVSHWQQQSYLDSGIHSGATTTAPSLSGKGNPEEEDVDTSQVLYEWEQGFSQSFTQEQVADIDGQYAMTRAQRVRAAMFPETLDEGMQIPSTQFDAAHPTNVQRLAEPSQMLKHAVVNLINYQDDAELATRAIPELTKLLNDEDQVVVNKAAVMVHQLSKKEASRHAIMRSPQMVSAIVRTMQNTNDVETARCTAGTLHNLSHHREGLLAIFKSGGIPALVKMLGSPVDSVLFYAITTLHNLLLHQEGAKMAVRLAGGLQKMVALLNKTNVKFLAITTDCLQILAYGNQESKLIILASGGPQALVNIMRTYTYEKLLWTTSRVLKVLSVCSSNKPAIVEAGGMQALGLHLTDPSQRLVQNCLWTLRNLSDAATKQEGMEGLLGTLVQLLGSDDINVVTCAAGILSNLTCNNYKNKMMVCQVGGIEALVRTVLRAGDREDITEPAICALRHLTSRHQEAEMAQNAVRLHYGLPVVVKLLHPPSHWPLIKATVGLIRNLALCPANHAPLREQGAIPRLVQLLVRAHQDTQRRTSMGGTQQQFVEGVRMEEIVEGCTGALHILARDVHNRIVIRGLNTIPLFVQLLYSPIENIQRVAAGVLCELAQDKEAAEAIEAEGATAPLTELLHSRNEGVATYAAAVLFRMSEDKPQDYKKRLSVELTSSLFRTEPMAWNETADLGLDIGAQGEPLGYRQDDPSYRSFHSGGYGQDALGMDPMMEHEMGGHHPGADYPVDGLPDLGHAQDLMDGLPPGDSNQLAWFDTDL
RUN DESCRIPTION: fluorescence polarization competition; full-length beta-catenin, 5FAM-TCF4(10-53) probe
Starred links: 1 amine or outer side, 2 acyl side, 3 side chain; linkers in the order of their positions; H or OH if unused. Positions of bridges follow the written chain, without caps; N, C: chain ends. Non-standard residues stand in square brackets, D forms with d. Primed or numbered codes have the meaning given here. PyrS2″ = (S)-3-amino-1-((pent-4-en-1-yloxy)carbonyl)pyrrolidine-3-carboxylic acid (stapling residue), C=CCCCOC(=O)N1CC[C@@](N[*:1])(C(=O)[*:2])C1; B5(5) = 2,2-bis(4-pentenyl)glycine, 2-amino-2-(pent-4-en-1-yl)hept-6-enoic acid (stitching residue), C=CCCCC(CCCC=C)(N[*:1])C(=O)[*:2]; TfeGA = (S)-2-amino-3-((carboxymethyl)(2,2,2-trifluoroethyl)amino)propanoic acid, O=C([C@H](CN(CC(=O)[*:3])CC(F)(F)F)N[*:1])[*:2]; PyrS2 = (S)-3-amino-1-((pent-4-en-1-yloxy)carbonyl)pyrrolidine-3-carboxylic acid, C=CCCCOC(=O)N1CC[C@@](N[*:1])(C(=O)[*:2])C1; B5 = 2-amino-2-(pent-4-en-1-yl)hept-6-enoic acid, C=CCCCC(CCCC=C)(N[*:1])C(=O)[*:2]; Phe(3-COOH) = N[C@@H](Cc1cccc(C(=O)O)c1)C(=O)O; Phe(2-CF3) = N[C@@H](Cc1ccccc1C(F)(F)F)C(=O)O; Phe(3-Br) = N[C@@H](Cc1cccc(Br)c1)C(=O)O; Bta = N[C@@H](Cc1csc2ccccc12)C(=O)O; αAllylPro = C=CC[C@@]1(C(=O)O)CCCN1; tBuAla = CC(C)(C)C[C@H](N)C(=O)O; 3Thi = N[C@@H](Cc1ccsc1)C(=O)O
MEASUREMENT LABEL: pIC50
Just so you know, pIC50 here is -log10 of the concentration in molar units; reply with that number alone.

Please review the following examples before continuing.
>  <BINDER>
Ac-[αAllylPro]D[tBuAla][B5]D[Phe(3-COOH)]AAFL[PyrS2][Phe(3-Br)][Phe(2-CF3)]Q-NH2 (staple 1-4, 4-11) [I-2155]

>  <pIC50>
5.00

$$$$
>  <BINDER>
Ac-[αAllylPro]D[tBuAla][B5]NTAAFN[PyrS2][3Thi][Bta]A-NH2 (staple 1-4, 4-11; also: earlier eluting HPLC isomer) [I-2142]

>  <pIC50>
6.57

$$$$
>  <BINDER>
Ac-[αAllylPro]D[tBuAla][B5(5)]D[TfeGA]AAFN[PyrS2″][3Thi][Bta]L-NH2 (staple 1-4, 4-11; also: staple isomer composition, earlier-eluting HPLC peak) [I-946]

>  <pIC50>
6.10

$$$$

// moving on: another record for pIC50
Problem: What measured pIC50 goes with Ac-[αAllylPro]D[tBuAla][B5]NTAAFT[PyrS2][3Thi][Bta]F-NH2 (staple 1-4, 4-11; also: later eluting HPLC isomer) [I-2145] ?
Solution: 5.68
